- Target Or System: T1, rat cMET (rat, UniProt P97523 25-935, limits assumed)
- T1 construct: ELISA antigen; also called rMET
- T1 sequence (P97523 25-935 limits assumed): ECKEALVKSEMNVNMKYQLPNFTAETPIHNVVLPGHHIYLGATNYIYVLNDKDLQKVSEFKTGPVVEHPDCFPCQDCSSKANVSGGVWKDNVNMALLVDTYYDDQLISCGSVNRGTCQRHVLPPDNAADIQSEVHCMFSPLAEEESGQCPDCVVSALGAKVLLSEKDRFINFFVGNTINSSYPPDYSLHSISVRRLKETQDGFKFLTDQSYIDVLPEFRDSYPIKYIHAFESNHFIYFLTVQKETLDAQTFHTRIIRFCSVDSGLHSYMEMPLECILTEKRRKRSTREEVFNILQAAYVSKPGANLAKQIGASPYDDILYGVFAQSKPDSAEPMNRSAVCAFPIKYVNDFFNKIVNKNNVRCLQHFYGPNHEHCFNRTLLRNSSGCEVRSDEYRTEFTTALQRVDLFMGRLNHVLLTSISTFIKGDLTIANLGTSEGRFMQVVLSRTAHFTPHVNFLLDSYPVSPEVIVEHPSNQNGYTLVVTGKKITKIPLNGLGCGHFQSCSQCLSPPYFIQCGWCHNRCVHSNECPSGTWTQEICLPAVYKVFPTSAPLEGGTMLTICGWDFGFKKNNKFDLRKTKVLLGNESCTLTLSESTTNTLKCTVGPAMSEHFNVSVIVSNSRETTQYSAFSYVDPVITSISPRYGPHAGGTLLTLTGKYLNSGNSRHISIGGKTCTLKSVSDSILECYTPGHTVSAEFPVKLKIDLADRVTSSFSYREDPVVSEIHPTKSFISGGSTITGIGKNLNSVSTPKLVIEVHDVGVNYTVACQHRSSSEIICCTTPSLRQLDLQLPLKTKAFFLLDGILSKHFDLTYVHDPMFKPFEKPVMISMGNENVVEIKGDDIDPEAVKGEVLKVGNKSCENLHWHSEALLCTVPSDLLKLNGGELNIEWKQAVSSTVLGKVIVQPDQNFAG
- Method Notes: ELISA on rat cMET, ratio to parental P3D12
Readout Kind: ELISA rMET vs parental
Respond with the number and no other words.

What value of ELISA rMET vs parental has been recorded for this entry: G2vka (antibody, V domains shown, As G2aka; also called humanized P3D12, HC VH-ven, LC abb/sdr) VH: QVQLVQSGAEVAKPGASVKMSCKASGYTFTSYWMHWVKQAPGQGLDWIGYIKPSTDNTEYNQKFKDKATLTADKSTSTAYMQLSSLRSEDTAVYYCARSYGNYPLMDYWGQGTTVTVSS VL: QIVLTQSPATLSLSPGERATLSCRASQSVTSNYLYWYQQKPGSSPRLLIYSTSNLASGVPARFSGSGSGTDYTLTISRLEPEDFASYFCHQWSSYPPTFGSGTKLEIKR
2.7

Fill blank: measured ELISA rMET vs parental of the binder G2vkv (antibody, V domains shown, As G2aka; reported insoluble in PBS; also called humanized P3D12, HC VH-ven, LC ven) VH: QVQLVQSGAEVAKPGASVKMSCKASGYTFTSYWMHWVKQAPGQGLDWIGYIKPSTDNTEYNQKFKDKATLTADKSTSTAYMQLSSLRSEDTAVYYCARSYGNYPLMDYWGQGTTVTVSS VL: QIVLTQSPATMSASPGERVTLSCSASSSVTSNYLYWYQQKPGSSPRLWIYSTSNLASGVPARFSGSGSGTSYTLTISRMEPEDAASYFCHQWSSYPPTFGSGTKLEIKR is ____.
1.6

Further cases:
Record request: ELISA rMET vs parental value, item G2akv (antibody, V domains shown, As G2aka; reported insoluble in PBS; also called humanized P3D12, HC VH-abb/sdr, LC ven) VH: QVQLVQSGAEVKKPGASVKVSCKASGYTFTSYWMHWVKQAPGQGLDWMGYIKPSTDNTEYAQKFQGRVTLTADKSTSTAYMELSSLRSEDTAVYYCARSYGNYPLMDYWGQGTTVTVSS VL: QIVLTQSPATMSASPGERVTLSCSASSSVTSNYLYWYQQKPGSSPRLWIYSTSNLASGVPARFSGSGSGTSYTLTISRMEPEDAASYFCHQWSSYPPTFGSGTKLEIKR
1.3
